Tested on: PPARg homodimer (NR concentration 180 nM)
ASSAY_PROCEDURE: PBM binding z-score (relative to random genomic background probes); higher = stronger binding; sequences stand for … in GC…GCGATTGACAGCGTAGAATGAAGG
In this scheme, each record receives a class according to its PBM binding z-score; the ranges are low range (below 2), mid range (2 to below 4), high range (4 or more)

- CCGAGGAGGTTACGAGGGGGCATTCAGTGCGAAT: low range
- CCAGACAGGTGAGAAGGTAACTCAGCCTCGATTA: low range
- CCTAGTGGGCCAAGGTCATTGATCAGTCAAAGCA: mid range
- ATCTCTAGGTTAAGATAGTTCAGTGAATGCAAAT: low range
- ATATGTAGGTTAAAGGTCATTCAGGTTGGTTCGC: high range
- CAAACGAGGTCAAGAGGTCAAAGTCCGCTTCCCG: high range
- TGTCAATGTTCAAAGGTAACGTAAGTATCCACAC: low range
- CAAAATAGGTCACGAAAGGTCAAAGTCGAATGAC: high range

Problem: Could you place `CGAACGAGGTCAAAGGACAGTGAAAGGCGACGTA` in its proper category? Many thanks.
Result: high range

Problem: Given `CCGAATAGGTTACGAGGGGGCATTCAGTGCGAAT` , name the class its PBM binding z-score places it in.
Result: mid range

---

Test system: PPARg:RXRa DBDmut IVT, anti-RXR (DBD mutation: RXRa K156A/R161A, NR concentration 270 nM, RXRa partner concentration 90 nM)
ASSAY_PROCEDURE: PBM binding z-score (relative to random genomic background probes); higher = stronger binding; sequences stand for … in GC…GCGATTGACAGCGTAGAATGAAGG
Quick rule: PBM binding z-score of at least 4 means label 1, below that means label 0.

* CCGAGTAGGTTACTAGGGGGCATTCAGTGCGAAT | label 1
* CGTTCAAGGTCAAAGGTCAGTGAAGAGATGACGG | label 1
* CGTCCAAGGTCACGGTCAGTGAAAGAGACTCGAA | label 1
* CCTCGGAGGACAGAAGGTCAAAGCTGTCCGCTTT | label 0

Problem: # bool: PBM binding z-score of `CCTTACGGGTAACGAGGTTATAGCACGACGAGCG` >= 4
Result: label 0

Problem: Is PBM binding z-score for `ATATGTAGGTCAAGGGTCATTCAGGTTGGTTCGC` at or above 4?
Result: label 1

Problem: Has `CCGACGGGGGCAAAGGTTACCATACTCAGTACGA` a recorded PBM binding z-score greater than or equal to 4?
Result: label 0

Problem: Hello, I need to know if `CGTCCAAGGTCATAGGAGGTCAATGAAGACAGAT` has measured PBM binding z-score not below 4. Thanks!
Result: label 0

Problem: Has `CCTCGGAGGTCAACAGGAGGTCAGAGCTGCCAGA` a recorded PBM binding z-score greater than or equal to 4?
Result: label 0

Problem: Form field: PBM binding z-score at least 4? Entry: `CAAACGAGGTCAAGGTCAAAGTCGGTTTGTGCCA`
Result: label 1

---

Test system: FXR:RXRa (NR concentration 270 nM, RXRa partner concentration 90 nM)
ASSAY_PROCEDURE: PBM binding z-score (relative to random genomic background probes); higher = stronger binding; sequences stand for … in GC…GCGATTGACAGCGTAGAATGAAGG
MEASUREMENT_LABEL: PBM binding z-score
Give bare numbers.

- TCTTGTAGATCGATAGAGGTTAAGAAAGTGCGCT: 0.392
- GCTTACGGGTCCAAGGTTATAGCATGAATAGAAT: 0.369
- CCTACTGGACCAAGGTCATTGATCAGTCAAAGCA: 3.24
- AGAATGAGGTTACCAAAGGTCAGGGAAACGCTTG: 6.02
- ATATGTAGGTCAAGGGTCATTCAGGTTGGTTCGC: 7.27

Problem: # query: PBM binding z-score of entry `TCGCCTAGGTCATGGGCCAGTATACCACGCGAAC`
Result: 4.68

---

System: LXRb:RXRa (NR concentration 270 nM, RXRa partner concentration 90 nM)
ASSAY_PROCEDURE: PBM binding z-score (relative to random genomic background probes); higher = stronger binding; sequences stand for … in GC…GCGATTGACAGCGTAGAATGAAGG
Outcome label depends on PBM binding z-score relative to 4: at/above gives condition met, below gives condition not met.

Previously resolved entries follow.
- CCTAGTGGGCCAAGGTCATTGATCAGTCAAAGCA: condition not met
- TCTCGGAGGAAACGAAAGGTCAGAGCTCGACATC: condition not met
- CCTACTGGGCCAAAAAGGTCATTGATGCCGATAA: condition not met
- CGTCAAAGTCCAAGGTAACGTAACAGAAAGCAGC: condition not met
- CGTCAAAGTTCAAGGTCACGTAACAGAAAGCAGC: condition met
- CAAACTAGGTCACAAAAGGTCAAAGTCGAATGAC: condition met
- TCTAGTTGGTCACGGAGGTCCCACACGACGGGTA: condition not met
- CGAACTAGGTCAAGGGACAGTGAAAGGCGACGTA: condition not met

Problem: Identify whether the reported PBM binding z-score of the following sequence is 4 or greater: `CGTCCAAGGTCAAGGTCAATGAAAGAGACTCGAA`
Result: condition met

Problem: Kindly determine if PBM binding z-score recorded for `CGAACTAGGTCGTCCAGGACAGTGAATACATTGA` is above or exactly 4.
Result: condition not met

Problem: Confirm if PBM binding z-score reported for the sequence `AATAAAGGGTCATCGTAGGCCAGAGTACGCACAG` is 4 or above.
Result: condition met

---

Test system: RXRa homodimer (NR concentration 180 nM)
ASSAY_PROCEDURE: PBM binding z-score (relative to random genomic background probes); higher = stronger binding; sequences stand for … in GC…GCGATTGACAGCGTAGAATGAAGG
Task for the reader: assign each of the following sequences its reported PBM binding z-score.

The following sequences have reported results that may help.
• CTCGAAAGGTCGTGCTCAGATGAGTATACCAAAC = 4.62
• TCTGCTAGGTCATCGATGGTCAGCTAATCTGCTA = 2.73
• ATATGTAGGATAGCTGGGGTCATTCAGACTAGGC = 4.92
• CGAACAAGGTCATCCAGGACAGTGAATACATTGA = 6.46

Hi there! I need PBM binding z-score for each item below, if you can.
1. TCTAGTTGGTCACGGAGGACACACACGACGGGTA
2. CGTCCAAAGTCAAAGGTCAGTGAAGAGATGACGG

Result:
[0.864, 5.96]

---

System: PPARg:RXRa 270nM:90nM, anti-RXR (NR concentration 270 nM, RXRa partner concentration 90 nM)
ASSAY_PROCEDURE: PBM binding z-score (relative to random genomic background probes); higher = stronger binding; sequences stand for … in GC…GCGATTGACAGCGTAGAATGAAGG
Criterion: PBM binding z-score meeting or surpassing 3. Met: fulfilled. Not met: not fulfilled.

Would you please look over these solved cases?
• CGAACGAGGTCACCAGGACAGTGAAGAGGTTGGA = fulfilled
• CGTCAAAGGTCAGAGAGGTCAGTGAATGCCGAGT = fulfilled
• ATCGAAAGGTCCAAGGTGAGTATACCCACCCGAA = not fulfilled
• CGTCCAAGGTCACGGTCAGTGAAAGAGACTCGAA = fulfilled
• ACTTACGGGTCAACGAGGTCATAGCACGCGTATA = fulfilled

Problem: Check the entry `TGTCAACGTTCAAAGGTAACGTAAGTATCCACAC` : does PBM binding z-score equal or exceed 3?
Result: not fulfilled

Problem: Textbook exercise: given the entry `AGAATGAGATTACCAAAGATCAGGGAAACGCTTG` , state whether its PBM binding z-score is greater than or equal to 3.
Result: not fulfilled

---

Test system: LXRa homodimer (NR concentration 270 nM)
ASSAY_PROCEDURE: PBM binding z-score (relative to random genomic background probes); higher = stronger binding; sequences stand for … in GC…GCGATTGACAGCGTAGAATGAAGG
Where PBM binding z-score equals or exceeds 0.6, the correct label is T; where it does not, the label is F.

* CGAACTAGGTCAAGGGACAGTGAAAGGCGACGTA | F
* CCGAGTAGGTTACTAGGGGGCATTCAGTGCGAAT | T
* CCTTAGGGGTCACTGACAGGTTATAGCATTTGGA | T

Problem: State whether the measured PBM binding z-score reaches 0.6, counting equality as reaching it, for `CAAACTAGGTCAAAAGGTCAAAGTCCGCTTCCCG`
Result: T

Problem: Reported PBM binding z-score at or above 0.6? `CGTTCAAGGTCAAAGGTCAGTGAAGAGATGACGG`
Result: T
